Target: T1, VEGFR-3-Fc (human, UniProt P35916 25-328)
T1 construct: domain: first three Ig domains; used as conditioned supernatant of 293T cells; also called VEGFR-3-Fc fusion protein; not shown: Fc fragment of the pIg vector
T1 sequence (looked up): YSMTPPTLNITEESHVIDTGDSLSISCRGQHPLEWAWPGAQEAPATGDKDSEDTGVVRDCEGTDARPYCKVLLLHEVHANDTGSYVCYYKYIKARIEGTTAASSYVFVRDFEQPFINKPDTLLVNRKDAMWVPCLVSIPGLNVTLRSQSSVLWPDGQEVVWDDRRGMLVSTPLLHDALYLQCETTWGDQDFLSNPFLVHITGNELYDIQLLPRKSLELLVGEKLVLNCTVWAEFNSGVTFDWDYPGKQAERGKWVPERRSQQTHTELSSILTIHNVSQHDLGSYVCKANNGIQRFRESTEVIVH
Assay: receptor-Fc IP
measurement.name: binding result

binder	result
14-9 (ligand) GQNHHEVVKFMDVYQRSYCHPIETLVDIFQEFGVATNTFFKPSCVPLMRCGGCCNDEGLECVPTEESNITMQIMRITVPLSQGPKPVTISFLQHNKCECRPKKD	binds
84-9 (ligand) AHYNTEILKFMDVYQRSYCHPIETLVDIFQEFGVATNTFFKPSCVPLMRCGGCCNDEGLECVPTEESNITMQIMRITVPLSQGPKPVTISFLQHNKCECRPKKD	binds
22-1 (ligand) AHYNTEILKSIDNEWRKTQCMPREVCIDVGKEFGVATNTFFKPPCVSVYRCGGCCNDEGLECVPTEESNITMQIMRIKPHQGQHIGEMSFLQHNKCECRPKKD	no binding
12-1 (ligand) GQNHHEVVKFMDVYQRSYCHPIETLVDIFQEFGVATNTFFKPPCVSVYRCGGCCNDEGLECVPTEESNITMQIMRIKPHQGQHIGEMSFLQHNKCECRPKKD	binds
82-7 (ligand) AHYNTEILKFMDVYQRSYCHPIETLVDIFQEFGVATNTFFKPPCVSVYRCGGCCNSEGLQCVPTEESNITMQIMRIKPHQGQHIGEMSFANHTSCRCMSKLD	binds
53-3 (ligand) AHYNTEILKSIDNEWRKTQCMPIETLVDIFQEYPDEIEYIFKPPCVSVYRCGGCCNSEGLQCVPTEESNITMQIMRIKPHQGQHIGEMSFLQHNKCECRPKKD	binds
12-14 (ligand) GQNHHEVVKFMDVYQRSYCHPIETLVDIFQEFGVATNTFFKPPCVSVYRCGGCCNDEGLECMNTSTSYLSKTLFEITVPLSQGPKPVTISFANHTSCRCMSKLD	binds

In the following, a different binder is considered.
response.value for 12-5 (ligand) GQNHHEVVKFMDVYQRSYCHPIETLVDIFQEFGVATNTFFKPPCVSVYRCGGCCNDEGLECVPTEESNITMQIMRIKPHQGQHIGEMSFANHTSCRCMSKLD (field: binding result) = no binding
